Would you kindly list GI50 at 48 h for each of these molecules?
measurement protocol: Cytotoxicity against mouse RAW264.7 cells assessed as growth inhibition after 48 hrs by MTT assay
Assay type: cell-based
Write the quantity with the unit trailing the number.

Study these solved cases before continuing.
{"columns": ["molecule", "GI50 at 48 h"],
 "data": [
  ["O=C(Nc1ccc(Cl)cc1)c1c(-c2ccccc2)c2cc(Cl)ccc2n(Cc2cccc(F)c2)c1=O", "86.8 µg/mL"],
  ["Cc1cc(C)c(NC(=O)c2c(-c3ccccc3)c3cc(Cl)ccc3n(Cc3cccc(F)c3)c2=O)c(C)c1", "93.5 µg/mL"],
  ["COC(=O)C(Cc1c[nH]c2ccccc12)NC(=O)c1c(-c2ccccc2)c2cc(Cl)ccc2[nH]c1=O (stereo unspecified)", "104 µg/mL"]
]}

Below are some molecules; for each one, tell me its GI50 at 48 h.
1. O=C(Nc1ccc(N2CCOCC2)cc1)c1c(-c2ccccc2)c2cc(Cl)ccc2[nH]c1=O
2. O=C(NC12CC3CC(CC(C3)C1)C2)c1c(-c2ccccc2)c2ccccc2[nH]c1=O
3. O=C(Nc1ccc(Br)cc1)c1c(-c2ccccc2)c2ccccc2n(Cc2ccccc2)c1=O

OUTPUT:
["96.4 µg/mL", "87.6 µg/mL", "113 µg/mL"]

###

System: Mycobacterium tuberculosis
measurement protocol: Antitubercular activity against Mycobacterium tuberculosis H37Rv after 1 week by microplate alamar blue assay
Type: functional
settings: 168 h
readout name: MIC

Example cases with answers are listed next.
{"columns": ["smiles input", "readout name", "result"],
 "data": [
  ["Cc1cccc(Cn2c(=O)c(C(=O)Nc3ccc(C(F)(F)F)cc3)c(-c3ccccc3)c3cc(Cl)ccc32)c1", "MIC", "> 25 µg/mL"],
  ["O=C(Nc1cccc(F)c1)c1c(-c2ccccc2)c2cc(Cl)ccc2n(Cc2ccc(F)cc2)c1=O", "MIC", "> 25 µg/mL"]
]}

Read the next record carefully.
INPUT: I'm curious: which MIC was measured for `O=C(Nc1ccc(OC(F)(F)F)cc1)c1c(-c2ccccc2)c2ccccc2n(Cc2ccccc2)c1=O` tested on Mycobacterium tuberculosis?
OUTPUT: > 25 µg/mL

###

Field: MIC. Provide a value for each of the molecules that follow.
Test system: Mycobacterium tuberculosis
measurement protocol: Antitubercular activity against Mycobacterium tuberculosis H37Rv after 1 week by microplate alamar blue assay
Assay type: functional
settings: 168 h
Answers are plain numbers, in µg/mL.

{"columns": ["molecule", "unit info", "MIC"],
 "data": [
  ["NNC(=O)c1ccncc1 [ISONIAZID]", "µg/mL", 0.1],
  ["Cc1cccc(Cn2c(=O)c(C(=O)Nc3ccc(Cl)cc3)c(-c3ccccc3)c3cc(Cl)ccc32)c1", "µg/mL", 25],
  ["COC(=O)C(Cc1ccc(O)cc1)NC(=O)c1c(-c2ccccc2)c2cc(Cl)ccc2[nH]c1=O (stereo unspecified)", "µg/mL", 12.5],
  ["O=C(Nc1ccc(C(F)(F)F)cc1)c1c(-c2ccccc2)c2ccccc2n(Cc2ccccc2)c1=O", "µg/mL", 25]
]}

// switching to the query molecule
INPUT: Recorded MIC of `O=C(Nc1ccc(F)cc1)c1c(-c2ccccc2)c2ccccc2[nH]c1=O` , please.
OUTPUT: 25
